# credit: patent US20240067651A1

Assay: Stability in Simulated Intestinal Fluid (SIF)
Type: in vitro ADME
Design: key: % parent compound remaining relative to 0-minute sample
Conditions: % remaining at 1 h; SIF with pancreatin pH 6.8, 2 μg/mL, 37° C.
MEASURED_QUANTITY: SIF

As a guide, the following entries are already answered.
CC(C)OCCn1c(=S)[nH]c(=O)c2c1ccn2COC(=O)[C@@H]1CCC(=O)N1C(=O)OC(C)(C)C	90%
COC(=O)[C@H](CCCCN)NC(=O)OCn1ccc2c1c(=O)[nH]c(=S)n2CCOC(C)C.O=C(O)C(F)(F)F	45%
CC(C)OCCn1c(=S)[nH]c(=O)c2c1ccn2COC(=O)CCNC(=O)OC(C)(C)C	67%
CC(C)OCCn1c(SCOC(=O)N(C)c2ccc(F)cc2)nc(=O)c2[nH]ccc21	96% remaining

Query :: # input molecule: COC(=O)[C@H](CCCCNC(=O)OC(C)(C)C)NC(=O)OCn1ccc2c1c(=O)[nH]c(=S)n2CCOC(C)C ; wanted: its SIF
Result :: 96%

Query :: # input molecule: CC(C)OCCn1c(=S)[nH]c(=O)c2c1ccn2C(C)OC(=O)N(C)CC(=O)OC(C)(C)C (stereo not shown) ; wanted: its SIF
Result :: 96%

Query :: # input molecule: CC(C)OCCn1c(=S)[nH]c(=O)c2c1ccn2COC(=O)[C@H]1CCCN1C(=O)OC(C)(C)C ; wanted: its SIF
Result :: 89%

* * *

Test: Caco-2 Permeability Assay
Assay type: in vitro ADME, human
Details: human, Caco-2, pH 7.4, no unit printed at the place (tables the 9th table and the 10th table have no head)
Known Papp at 90 min, 10 µM of a selection of molecules
The answer is to be given in ×10⁻⁶ cm/s; state only the numeric part.

As a guide, the following entries are already answered.
CC(C)OCCn1c(=S)[nH]c(=O)c2c1ccn2COC(=O)NCC(F)(F)F [Example 100]	27.7
COCCOCCOC(=O)OCSc1nc(=O)c2c(ccn2COC(=O)OCCOCCOC)n1CCOC(C)C [Example 104]	0.276
COC(=O)[C@H](CCCCNC(=O)OC(C)(C)C)NC(=O)OCn1ccc2c1c(=O)[nH]c(=S)n2CCOC(C)C [Example 101]	1.46
COCCOCCOC(=O)OCn1ccc2c1c(=O)[nH]c(=S)n2CCOC(C)C [Example 105]	24.3

Query :: # input molecule: CC(C)OCCn1c(=S)n(COCC[Si](C)(C)C)c(=O)c2[nH]ccc21 [Example 70] ; wanted: its Papp at 90 min, 10 µM
Result :: 23.2

Query :: # input molecule: CC(C)OCCn1c(=S)[nH]c(=O)c2c1ccn2COC(=O)N[C@H](C(=O)OC(C)(C)C)C(C)C [Example 107] ; wanted: its Papp at 90 min, 10 µM
Result :: 11.5

* * *

Known SIF of a selection of compounds
Test: Stability in Simulated Intestinal Fluid (SIF)
Type: in vitro ADME
Set-up: key: % parent compound remaining relative to 0-minute sample
Settings: bare number, unit or time not given; the 15th table Examples 204-207
In your answer, state the number alone without any accompanying words.

CC(C)OCCn1c(SCOC(=O)Oc2ccccc2)nc(=O)c2[nH]ccc21	10

Query :: # input compound: CCCCCCCCOC(=O)OCSc1nc(=O)c2[nH]ccc2n1CCOC(C)C ; wanted: its SIF
Result :: 1

Query :: # input compound: CCCCOC(=O)OCSc1nc(=O)c2[nH]ccc2n1CCOC(C)C ; wanted: its SIF
Result :: 2

Query :: # input compound: CCCCCCCCOC(=O)OCSc1nc(=O)c2c(ccn2COC(=O)OCCCCCCCC)n1CCOC(C)C ; wanted: its SIF
Result :: 29
